EXPERIMENTAL TARGET: FGFR3 V555M (Homo sapiens, UniProt P22607, V555M)
Construct: purchased Signalchem F06-12GG
Sequence (P22607 397-806 V555M limits assumed): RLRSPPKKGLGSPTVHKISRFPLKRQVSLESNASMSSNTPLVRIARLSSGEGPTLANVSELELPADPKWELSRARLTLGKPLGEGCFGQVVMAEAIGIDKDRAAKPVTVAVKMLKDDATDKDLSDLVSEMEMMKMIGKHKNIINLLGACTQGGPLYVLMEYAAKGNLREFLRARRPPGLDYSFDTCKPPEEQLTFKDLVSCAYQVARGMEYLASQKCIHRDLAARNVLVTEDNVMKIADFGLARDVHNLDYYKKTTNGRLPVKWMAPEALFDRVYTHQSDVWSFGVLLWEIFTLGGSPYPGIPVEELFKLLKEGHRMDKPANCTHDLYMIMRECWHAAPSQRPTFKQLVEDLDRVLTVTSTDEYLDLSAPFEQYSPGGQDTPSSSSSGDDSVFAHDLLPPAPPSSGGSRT
PROTOCOL TEXT: Assay I: inhibitory activity against FGFR mutants (HTRF KinEASE-TK)
Type: biochemical
TEST SETTINGS: ATP 20 μM, substrate TK 1 μM
What IC50 was measured for each of the following?
Respond numerically; units are nM and should not be typed.

Qu. Output reported IC50 of the compound CC(Oc1ccc2[nH]nc(-c3nc4c([nH]3)CN(C(=O)N3CCN(C)CC3)CC4)c2c1)c1c(Cl)cncc1Cl (stereo not shown) on FGFR3 V555M (Homo sapiens, UniProt P22607, V555M).
Ans. 0.23

Qu. Please report IC50 with FGFR3 V555M (Homo sapiens, UniProt P22607, V555M) for item C[C@@H](Oc1ccc2[nH]nc(-c3nc4c([nH]3)CN(C(=O)OC3CCN(C)C3)C4)c2c1)c1c(Cl)cncc1Cl (stereo partly shown) .
Ans. 0.87

Qu. With FGFR3 V555M (Homo sapiens, UniProt P22607, V555M) as the test system, provide measured IC50 for this compound: CC(Oc1ccc2[nH]nc(-c3nc4c([nH]3)CN(C)C4)c2c1)c1c(Cl)cncc1Cl (stereo not shown)
Ans. 1.1

Qu. # return IC50 of CC(Oc1ccc2[nH]nc(-c3nc4c([nH]3)CN(C3CC(O)C3)C4)c2c1)c1c(Cl)cncc1Cl (stereo not shown) (system: FGFR3 V555M (Homo sapiens, UniProt P22607, V555M))
Ans. 0.64

Qu. Provide IC50, recorded with FGFR3 V555M (Homo sapiens, UniProt P22607, V555M), of CC(Oc1ccc2[nH]nc(-c3nc4c([nH]3)CN(S(=O)(=O)C(C)C)C4)c2c1)c1c(Cl)cncc1Cl (stereo not shown)
Ans. 0.6

Qu. Fetch value of IC50 on FGFR3 V555M (Homo sapiens, UniProt P22607, V555M) for CC(Oc1ccc2[nH]nc(-c3nc4c([nH]3)CNC4)c2c1)c1c(Cl)cncc1Cl (stereo not shown) .
Ans. 0.76

Qu. Report measured IC50 on FGFR3 V555M (Homo sapiens, UniProt P22607, V555M); entry: CC(Oc1ccc2[nH]nc(-c3nc4c([nH]3)CN(CCO)C4)c2c1)c1c(Cl)cncc1Cl (stereo not shown)
Ans. 2

* * *

EXPERIMENTAL TARGET: FGFR3 V555M (Homo sapiens, UniProt P22607, V555M)
Construct: purchased Signalchem F06-12GG
PROTOCOL TEXT: Assay I: inhibitory activity against FGFR mutants (HTRF KinEASE-TK)
Type: biochemical
TEST SETTINGS: ATP 20 μM, substrate TK 1 μM
Response field label: string, one of Yes (IC50 strictly below 0.3 nM) or No.

Qu. IC50 under 0.3 nM? Item: C[C@@H](Oc1ccc2[nH]nc(-c3nc4c([nH]3)CN(C(=O)CN3CCC(F)C3)C4)c2c1)c1c(Cl)cncc1Cl (stereo partly shown)
Ans. No

Qu. For this compound, is IC50 lower than 0.3 nM? CC(Oc1ccc2[nH]nc(-c3nc4c([nH]3)CN(C3CCC(O)CC3)C4)c2c1)c1c(Cl)cncc1Cl (stereo not shown)
Ans. No

Qu. Bench note: check whether CC(Oc1ccc2[nH]nc(-c3nc4c([nH]3)CN(S(=O)(=O)C3CC3)C4)c2c1)c1c(Cl)cncc1Cl (stereo not shown) shows IC50 below 0.3 nM
Ans. No

Qu. Problem: For the compound C[C@@H](Oc1ccc2[nH]nc(-c3nc4c([nH]3)CN(C(=O)CN3CC(F)C3)C4)c2c1)c1c(Cl)cncc1Cl , is IC50 under 0.3 nM?
Ans. No

Qu. I wonder whether C[C@@H](Oc1ccc2[nH]nc(-c3nc4c([nH]3)CN(C(=O)N(C)C)C4)c2c1)c1c(Cl)cncc1Cl has IC50 below 0.3 nM. Can you tell?
Ans. Yes

Qu. Say whether its IC50 is strictly beneath 0.3 nM. Entry: C[C@@H](Oc1ccc2[nH]nc(-c3nc4c([nH]3)CN(C(=O)[C@@H]3CCCN3C)C4)c2c1)c1c(Cl)cncc1Cl
Ans. Yes

Qu. Input C[C@@H](Oc1ccc2[nH]nc(-c3nc4c([nH]3)CN(C(=O)CN3CCC3)C4)c2c1)c1c(Cl)cncc1Cl ; condition: IC50 strictly below 0.3 nM. Does it hold?
Ans. Yes
